# run.description: Human intestinal absorption in po dosed human
# protocol.conditions: in vivo
This listing pairs compounds with measured Fa.
Quick note: give the figure in %, leave out the unit.

INSERT INTO results (compound, attribute_measured, experimental_result) VALUES
  ('CN1C(C(=O)Nc2ccccn2)=C(O)c2ccccc2S1(=O)=O', 'Fa', 100),
  ('Nc1nc2c(ncn2COCCO)c(=O)[nH]1', 'Fa', 23);

Record request: Fa value, item C#C[C@]1(O)CC[C@H]2[C@@H]3CCC4=CC(=O)CC[C@@H]4[C@H]3CC[C@@]21CC
100

Reported Fa for C[C@@H]1O[C@@H]1P(=O)(O)O : what is it?
31

I would be grateful if you could share the reported Fa for CNC(=O)c1c(I)c(NC(C)=O)c(I)c(C(=O)[O-])c1I.[Na+] [IOTHALAMATE SODIUM] .
2

If you can, please state the reported Fa value of O=C(O)c1cc(/N=N/c2ccc(S(=O)(=O)Nc3ccccn3)cc2)ccc1O .
59

* * *

Consider the following compounds and their measured Fa readings.
# run.description: Human intestinal absorption in po dosed human
# protocol.conditions: in vivo
State just the number; it will be interpreted in %.

INSERT INTO results (compound, attribute_measured, experimental_result) VALUES
  ('ClC(Cl)Cl [CHLOROFORM]', 'Fa', 100),
  ('CC1=C(C(=O)O)N2C(=O)[C@@H](NC(=O)[C@H](N)c3ccc(O)cc3)[C@H]2SC1 [CEFADROXIL]', 'Fa', 100),
  ('OC[C@@H](O)[C@@H](O)[C@H](O)[C@H](O)CO [MANNITOL]', 'Fa', 16),
  ('COc1ccc(Cl)cc1C(=O)NCCc1ccc(S(=O)(=O)NC(=O)NC2CCCCC2)cc1 [GLYBURIDE]', 'Fa', 100),
  ('C[C@H](N)Cc1ccccc1 [DEXTROAMPHETAMINE]', 'Fa', 90);

With those in mind, consider the next compound.
Given CN(C)C(=N)N=C(N)N [METFORMIN] , state its recorded Fa.
53

* * *

# run.description: Human intestinal absorption in po dosed human
# protocol.conditions: in vivo
Label true when Fa is at or above 60%; anything below gets false.

Could you tell me if the measured Fa of Nc1ccn([C@@H]2CS[C@H](CO)O2)c(=O)n1 reaches 60% or more?
true

Decide: Fa of NC(=O)N1C(=O)/C(=C(\O)c2cccs2)c2cc(Cl)ccc21 >= 60%?
true

* * *

# run.description: Human intestinal absorption in po dosed human
# protocol.conditions: in vivo
attribute.measured: Fa (%)
Please reply with the bare figure in % and do not write the unit itself.

INSERT INTO measurements (query_smiles, attribute_measured, experimental_result) VALUES
  ('COc1cc(Cc2cnc(N)nc2N)cc(OC)c1OC', 'Fa', 97);

I have this compound here, CO[C@H]1C[C@H](O[C@H]2CC[C@]3(C=O)[C@H]4CC[C@]5(C)[C@@H](C6=CC(=O)OC6)CC[C@]5(O)[C@@H]4CC[C@]3(O)C2)O[C@H](C)[C@H]1O , and I need its recorded Fa.
47

Field request: Fa | item: CN1C(C(=O)Nc2ccccn2)=C(O)c2sc(Cl)cc2S1(=O)=O
100

* * *

# run.description: Human intestinal absorption in po dosed human
# protocol.conditions: in vivo
Reported Fa values for the following molecules.
# unit: % | format: bare number

Example cases with answers are listed next.
INSERT INTO measurements (molecule, attribute_measured, experimental_result) VALUES
  ('C[C@@H]1O[C@@H](O[C@H]2C[C@@H](O)[C@]3(CO)[C@H]4[C@H](O)C[C@]5(C)[C@@H](C6=CC(=O)OC6)CC[C@]5(O)[C@@H]4CC[C@]3(O)C2)[C@H](O)[C@H](O)[C@H]1O', 'Fa', 1),
  ('NC(N)=Nc1nc(CSCCC(N)=NS(N)(=O)=O)cs1', 'Fa', 28),
  ('O=C1NC(=O)C(c2ccccc2)(c2ccccc2)N1', 'Fa', 90);

We next turn to a different molecule, shown below.
Value lookup for Fa; key = Cc1ccc(S(=O)(=O)NC(=O)NN2CC3CCCC3C2)cc1 (centres undefined) [GLICLAZIDE]
65

Origin of measurements: ChEMBL document CHEMBL1157012
